Quick reference: solubility kinetic of the listed items.
# assay_comment: Kinetic solubility of the compound at pH 4.0
# Format: physicochemical
# condition_details: buffer, read-out: Kinetic_solubility
value_kind: solubility kinetic (µM)

[
  {
    "structure": "CCN(CC)C(=O)Oc1ccc2c(-c3cnn(-c4ccccc4)c3)ccnc2c1",
    "value_kind": "solubility kinetic",
    "meas_value": 190
  },
  {
    "structure": "COc1ccc2c(-c3cnn(-c4ccccc4)c3)ccnc2c1",
    "value_kind": "solubility kinetic",
    "meas_value": 120
  },
  {
    "structure": "c1ccc(-n2cc(-c3ccnc4ccccc34)cn2)cc1",
    "value_kind": "solubility kinetic",
    "meas_value": 150
  }
]
